- target_system: T1, HLA-B*44:05 (human)
- T1 construct: also called peptide-receptive MHC class I molecule
- test: UV peptide exchange, anti-b2m ELISA
recorded_endpoint: peptide exchange yield

Value of measured peptide exchange yield for the entry HEIPQESL : 10 to 20%

Value of measured peptide exchange yield for the entry YEMAIYKKY : > 75%

Value of measured peptide exchange yield for the entry EEYKFPSLF : 50 to 75%

Value of measured peptide exchange yield for the entry EELHAALSEW : > 75%

Value of measured peptide exchange yield for the entry AELDHLASL : 50 to 75%

Value of measured peptide exchange yield for the entry MEHSDENIQFW : 20 to 50%

Value of measured peptide exchange yield for the entry KELEERMLHW : > 75%

Value of measured peptide exchange yield for the entry KEAFGPQAL : > 75%
